Origin of measurements: patent US20260242478A1

targetOfAssay: T1, PSMA Fab
T1 construct: Biotinylated and captured on neutravidin coated plates in the phage ELISA; also called 006 PSMA Fab; Anti-PSMA Fab
assayProcedure: phage ELISA; biotinylated PSMA Fab on neutravidin plate, clonal phage supernatant, anti-M13 HRP; wells pre-incubated with PSMA antigen as competitor
measurementType: phage binding ELISA signal
Numbers only.

ADRLCIPPWMCEMK (Peptide-180 library clone, tested as clonal phage (peptide fused to pIII)) [Phage-2428]
0.0685
EERWCIPEWMCSRI (Peptide-180 library clone, tested as clonal phage (peptide fused to pIII)) [Phage-2434]
0.0557
DENWCKPLWMCEGF (Peptide-180 library clone, tested as clonal phage (peptide fused to pIII)) [Phage-2425]
0.0991

Continue with the binder presented below.
Problem: Form field: reported phage binding ELISA signal of VLKWCTPPWMCWDI (Peptide-180 library clone, tested as clonal phage (peptide fused to pIII)) [Phage-2431]
Result: 0.123
